assay: Mouse blood and tissue PK (LC/MS-MS); format: in vivo; conditions: BALB/c nude, mouse, ear skin, oral, 25 mg/kg, sheet Ear Skin, model Capan-2, study Capan-2 #3_PHA 2023, 25 mg/kg, 4h; read-out: RMC-6236 (nM) Tumor
MEASURED ENDPOINT: concentration at 4 h (nM)
Enter your answer as a number in nM; do not include the unit.

Prompt: Data request, read-out concentration at 4 h, for CCn1c(-c2cc(N3CCN(C)CC3)cnc2[C@H](C)OC)c2c3cc(ccc31)-c1csc(n1)C[C@H](NC(=O)[C@H]1C[C@@H]1C)C(=O)N1CCC[C@H](N1)C(=O)OCC(C)(C)C2
Completion: 2370

====

assay: Mouse blood and tissue PK (LC/MS-MS); format: in vivo; details: BALB/c nude, mouse, tumor, oral, 10 mg/kg, sheet colon; Capan-2, Capan-2 #3_PHA 2023; 10 mg/kg, 8h; read-out: RMC-6236 (nM) Tumor
MEASURED ENDPOINT: concentration at 8 h (nM)
Give the quantity in nM, number only.

Prompt: Look up concentration at 8 h for this compound: CCn1c(-c2cc(N3CCN(C)CC3)cnc2[C@H](C)OC)c2c3cc(ccc31)-c1csc(n1)C[C@H](NC(=O)[C@H]1C[C@@H]1C)C(=O)N1CCC[C@H](N1)C(=O)OCC(C)(C)C2
Completion: 1860

====

experiment: Mouse blood and tissue PK (LC/MS-MS); format: in vivo; conditions: mouse, tumor, oral, 3 mg/kg, KP-4, study KP-4 #6, 3 mg/kg, 48h; read-out: RMC-6236 (nM) Tumor
MEASURED ENDPOINT: concentration at 48 h (nM)
Respond numerically; units are nM and should not be typed.

Prompt: What does the record list as concentration at 48 h for CCn1c(-c2cc(N3CCN(C)CC3)cnc2[C@H](C)OC)c2c3cc(ccc31)-c1csc(n1)C[C@H](NC(=O)[C@H]1C[C@@H]1C)C(=O)N1CCC[C@H](N1)C(=O)OCC(C)(C)C2 ?
Completion: 29

====

assay: Mouse blood and tissue PK (LC/MS-MS); assay type: in vivo; conditions: BALB/c nude, mouse, whole blood, po, 10 mg/kg, Capan-2 (10 mg/kg), single dose; read-out: Blood t1/2 (converted)
MEASURED ENDPOINT: half-life (h)
Write the value in h as a bare number.

Prompt: If you can, please state the reported half-life value of CCn1c(-c2cc(N3CCN(C)CC3)cnc2[C@H](C)OC)c2c3cc(ccc31)-c1csc(n1)C[C@H](NC(=O)[C@H]1C[C@@H]1C)C(=O)N1CCC[C@H](N1)C(=O)OCC(C)(C)C2 [RMC-6236] .
Completion: 3.77

====

test: Mouse blood and tissue PK (LC/MS-MS); assay type: in vivo; conditions: mouse, tumor, oral, 3 mg/kg, KP-4, study KP-4 #6, 3 mg/kg, 8h; read-out: RMC-6236 (nM) Tumor
MEASURED ENDPOINT: concentration at 8 h (nM)
Kindly provide the numeric value in nM only, without the unit symbol.

Prompt: // returns reported concentration at 8 h for input CCn1c(-c2cc(N3CCN(C)CC3)cnc2[C@H](C)OC)c2c3cc(ccc31)-c1csc(n1)C[C@H](NC(=O)[C@H]1C[C@@H]1C)C(=O)N1CCC[C@H](N1)C(=O)OCC(C)(C)C2 [RMC-6236]
Completion: 340
